Test system: S. aureus (ATCC 25923)
experiment: Antibacterial viability (CFU) assay, IC50
Type: cell-based
setupConditions: Staphylococcus aureus, ATCC25923
I'd appreciate it if you could supply IC50 values for the items below.
Answer with the value and then the unit.

Asked: Find the measured IC50 of Cc1[nH]nc2c1C(c1cccc(O)c1Cl)C(C#N)=C(N)O2 (stereo not shown) and report it.
Given back: 43.9 µM

Asked: Return reported IC50. Input compound: CC1=C(C(=O)OCc2ccccc2)C(c2ccc(Cl)cc2Cl)C(C#N)=C(N)O1 (stereo not shown)
Given back: 33.2 µM

Asked: Answer with the recorded IC50 for the compound listed here: COc1cccc(C2C(C#N)=C(N)OC(C)=C2C(=O)OCc2ccccc2)c1[N+](=O)[O-] (stereo not shown)
Given back: 37 µM

Asked: Kindly indicate its recorded IC50. Item: COC(=O)C1=C(C)OC(N)=C(C#N)C1c1cccc(O)c1Cl (stereo not shown)
Given back: 38.4 µM

Asked: Give IC50 for COc1cc(OC)c(C2C(C#N)=C(N)Oc3n[nH]c(C)c32)c(OC)c1 (stereo not shown)
Given back: 39.1 µM

Asked: Report IC50, nothing else, for this compound: CCOC(=O)C1=C(C)OC(N)=C(C#N)C1c1c(OC)cc(OC)cc1OC (stereo not shown)
Given back: 32.7 µM

Asked: Give a short answer stating reported IC50 for CCOC(=O)C1=C(C)OC(N)=C(C#N)C1c1cccc(OC)c1[N+](=O)[O-] (stereo not shown) .
Given back: 50.2 µM

----------
I'd be grateful if you could share measured melting point for these entries.

Asked: For the molecule COC(=O)C1=C(C)OC(N)=C(C#N)C1c1ccccc1C(=O)O (stereo not drawn) , give its reported melting point.
Given back: 216 to 218 °C

Asked: Identify the reported melting point for the following entry. CCOC(=O)C1=C(C)OC(N)=C(C#N)C1c1cccc(O)c1Cl (stereo not drawn)
Given back: 212 to 213 °C

Asked: Please report the measured melting point for CC1=C(C(=O)OCc2ccccc2)C(c2ccccc2Cl)C(C#N)=C(N)O1 (stereo not drawn)
Given back: 162 to 164 °C

Asked: Provide one value: measured melting point of CCOC(=O)C1=C(C)OC(N)=C(C#N)C1c1cccc(OC)c1[N+](=O)[O-] (stereo not drawn)
Given back: 220 to 222 °C

Asked: Fill in reported melting point for this entry: COc1cccc(C2C(C#N)=C(N)OC(C)=C2C(=O)OCc2ccccc2)c1[N+](=O)[O-] (stereo not drawn)
Given back: 190 to 192 °C

Asked: Please give the documented melting point of CCOC(=O)C1=C(C)OC(N)=C(C#N)C1c1c(OC)cc(OC)cc1OC (stereo not drawn)
Given back: 196 to 198 °C

Asked: In one line, give reported melting point of the entry CC1=C(C(=O)OCc2ccccc2)C(c2ccc(F)cc2)C(C#N)=C(N)O1 (stereo not drawn) .
Given back: 124 to 126 °C

Asked: Look up and report measured melting point for this entry: COc1cc(OC)c(C2C(C#N)=C(N)Oc3n[nH]c(C)c32)c(OC)c1 (stereo not drawn)
Given back: 182 to 184 °C

Asked: Look up and report measured melting point for this entry: COC(=O)C1=C(C)OC(N)=C(C#N)C1c1cccc(O)c1Cl (stereo not drawn)
Given back: 238 to 240 °C

----------
System: K. pneumonia (ATCC 700603)
experiment: Antibacterial agar diffusion method (inhibition zone)
Format: cell-based
What IZ (mm) was measured for each of the following?
Field format: number, assumed mm, no unit text.

Asked: Quickly give me recorded IZ (mm) for COc1cccc(C2C(C#N)=C(N)OC(C)=C2C(=O)OCc2ccccc2)c1[N+](=O)[O-] (stereo not drawn) [4c]
Given back: 3.5

Asked: Tell me measured IZ (mm) for COc1cc(C2C(C#N)=C(N)OC(C)=C2C(=O)OCc2ccccc2)cc(OC)c1OC (stereo not drawn) [4d] please.
Given back: 4.5

Asked: Provide one value: measured IZ (mm) of CCOC(=O)C1=C(C)OC(N)=C(C#N)C1c1cccc(O)c1Cl (stereo not drawn) [4g]
Given back: 11.5

Asked: Return value of IZ (mm) for input CCOC(=O)C1=C(C)OC(N)=C(C#N)C1c1cccc(OC)c1[N+](=O)[O-] (stereo not drawn) [4b] , no commentary.
Given back: 1.5

Asked: Please indicate IZ (mm) recorded for CC1=C(C(=O)OCc2ccccc2)C(c2ccc(C#N)cc2)C(C#N)=C(N)O1 (stereo not drawn) [4k]
Given back: 2.5

Asked: Find the measured IZ (mm) of CC1=C(C(=O)OCc2ccccc2)C(c2ccccc2Cl)C(C#N)=C(N)O1 (stereo not drawn) [4l] and report it.
Given back: 2.5

Asked: Output IZ (mm) of COC(=O)C1=C(C)OC(N)=C(C#N)C1c1cccc(O)c1Cl (stereo not drawn) [4f]
Given back: 4.5

Asked: Give recorded IZ (mm). CC1(C)S[C@@H]2[C@H](NC(=O)[C@H](N)c3ccccc3)C(=O)N2[C@H]1C(=O)O [Ampicillin, reference compound]
Given back: 21.0

Asked: Quickly give me recorded IZ (mm) for COc1ccc(C2C(C#N)=C(N)OC(C)=C2C(=O)OCc2ccccc2)cc1 (stereo not drawn) [4j]
Given back: 12.0
